# key: entry, value: log10 MIC
- Tested on: C. neoformans
- TEST_SUMMARY: Growth inhibition assay (Bioscreen C, 2-fold dilution series, plating for fungicidal vs fungistatic) in C. neoformans
- Format: cell-based, Cryptococcus neoformans H99
- CONDITION: 72 h drug exposure in liquid culture, then recovery on agar plates overnight
// units: µg/mL (pre-log); metric: MIC; scale: log10

Some solved cases for reference:
                                   compound  readout_number
0        OC(Cn1cncn1)(Cn1cncn1)c1ccc(F)cc1F            0.88
1     O=C(Nc1cccc(C(F)(F)F)c1)c1cc(Cl)ccc1O           -0.30
2      Cc1ccc2cc3c(N)c4c(C)ccc(C)c4nc3nc2c1            0.86
3            Cc1ccc(Nc2nc(-c3ccccn3)cs2)cc1            0.20
4  Cc1ccc2c(c1)c1cc(C)ccc1n2CC(O)CNC1CCCCC1 (stereo not drawn)           -0.05

Turning now to a further record.
Tested on C. neoformans: Nc1ccc(-c2nc3ccc(Cc4ccc5nc(C6CCC(N)CC6)[nH]c5c4)cc3[nH]2)cc1 (stereo not drawn) . Observed log10 MIC: -0.52
